test-system: Lysosomal acid glucosylceramidase (Homo sapiens) (UniProt P04062)
Sequence (P04062 whole entry N409S): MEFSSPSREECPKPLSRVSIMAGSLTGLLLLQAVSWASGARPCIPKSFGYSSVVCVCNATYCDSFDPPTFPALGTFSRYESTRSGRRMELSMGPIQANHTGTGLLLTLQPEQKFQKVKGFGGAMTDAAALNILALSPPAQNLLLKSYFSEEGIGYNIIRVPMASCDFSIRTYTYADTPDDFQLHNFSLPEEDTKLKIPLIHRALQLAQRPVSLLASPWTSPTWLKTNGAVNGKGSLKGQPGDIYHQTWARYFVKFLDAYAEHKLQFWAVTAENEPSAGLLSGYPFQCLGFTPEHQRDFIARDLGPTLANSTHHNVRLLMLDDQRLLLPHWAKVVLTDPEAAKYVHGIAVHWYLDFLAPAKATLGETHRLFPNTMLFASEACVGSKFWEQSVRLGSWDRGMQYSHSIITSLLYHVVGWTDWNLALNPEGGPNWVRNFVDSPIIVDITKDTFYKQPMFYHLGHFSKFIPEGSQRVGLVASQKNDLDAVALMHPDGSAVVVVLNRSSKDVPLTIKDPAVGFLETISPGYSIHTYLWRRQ
protocol-summary: qHTS Assay for Inhibitors and Activators of N370S glucocerebrosidase as a Potential Chaperone Treatment of Gaucher Disease: Primary Screen Confirmation
particulars: N370S glucocerebrosidase enzyme activity, fluorogenic substrate; series mostly up to 54 µM
Inconclusive results are not listed. Calls of active or inactive are those of the source. Calls follow the shape of the dose curve; as a rule, active = well fitted curve in the direction sought with a large enough effect; inconclusive = small, poorly fitted or top-dose-only effect, or another doubt; inactive = no such curve, though single readings can be large or run the other way.
# valid calls are 1 (active), -1 (inactive); nothing else

Below, 6 molecules whose answers are already recorded.
molecule | category-label
O=S(=O)(c1ccc2c(c1)CCCC2)N1CCN(c2nc(-c3cccs3)nc3ccccc23)CC1 | 1
O=S(=O)(c1ccccc1Br)N1CCN(c2nc(-c3cccs3)nc3ccccc23)CC1 | 1
CCN1CCN(c2nc3c(C)cccn3c(=O)c2/C=C(\C#N)C(=O)NCCOC)CC1 | -1
O=S(=O)(c1ccc2ccccc2c1)N1CCN(c2nc(-c3ccccc3)nc3ccccc23)CC1 | 1
O=C(c1ccc2c(c1)OCCO2)N1CCN(c2nc(-c3cccs3)nc3ccccc23)CC1 | 1
Cc1ccc(S(=O)(=O)N2CCC(c3nc(-c4cccs4)nc4ccccc34)CC2)cc1 | -1

Query: Outcome logged for "COc1ccc(S(=O)(=O)N2CCN(c3nc(-c4cccs4)nc4ccccc34)CC2)cc1" in this assay:
Response: 1

Query: Outcome logged for "CS(=O)(=O)N1CCN(c2nc(-c3cccs3)nc3ccccc23)CC1" in this assay:
Response: 1

Query: Outcome logged for "O=S(=O)(c1cccc(F)c1)N1CCN(c2nc(-c3cccs3)nc3ccccc23)CC1" in this assay:
Response: 1

Query: Outcome logged for "COCCNC(=O)/C(C#N)=C/c1c(N2CCN(C)CC2)nc2c(C)cccn2c1=O" in this assay:
Response: -1
